- System: HEK293
- Experimental protocol: Cytotoxic Profiling of Annotated Libraries Using Quantitative High-Throughput Screening (AID 1296008); also: nearly all actives have a fitted effect of over 60% in size
- Details: Five cell lines viability, CellTiter-Glo ATP luminescence, 48-72 h
Inconclusive results are not listed. Calls of active or inactive are those of the source. Calls follow the shape of the dose curve; as a rule, active = well fitted inhibition curve with a large enough effect; inconclusive = small, poorly fitted or top-dose-only effect; inactive = flat fitted curve, though single readings scatter.
Readout label: outcome

Study these solved cases before continuing.
compound="CC(C)C(C#N)O[C@@H]1O[C@H](CO[C@@H]2OC[C@](O)(CO)[C@H]2O)[C@@H](O)[C@H](O)[C@H]1O (stereo partly drawn)" assay_value=inactive
compound="CC1(C)CCCC2(C)C(CO)C3CCC2C31 (stereo not drawn)" assay_value=inactive
compound="COc1cc(/C=C/C(=O)OC2CC(OC(C)=O)C(OC(C)=O)C3C2CCC2C(=O)OC(c4ccoc4)CC23C)ccc1O[C@@H]1O[C@H](CO)[C@@H](O)[C@H](O)[C@H]1O (stereo partly drawn)" assay_value=inactive
compound="COC12CC3C(C(C)C1=CC(=O)O2)C(O)C(OC(C)=O)C1C(C)(C)C(OC(C)=O)CCC31C (stereo not drawn)" assay_value=inactive
compound="C=CC(C)(C)C1(CC2NC(=O)C3CCCN3C2=O)C(=O)Nc2cc3c(cc21)C=CC(C)(C)O3 (stereo not drawn)" assay_value=inactive

Given C=CC1(C)CC(O)C2(CCC3C(C)(C(=O)O)CCCC3(C)C2=O)C1 (stereo not drawn) , state its recorded outcome. inactive

Also need O=C(/C=C/c1ccccc1)OCC1=CC[C@@H]2C(C(=O)O)=CO[C@@H](O[C@@H]3O[C@H](CO)[C@@H](O)[C@H](O)[C@H]3O)[C@H]12 , thanks. inactive

Also need COc1ccc2c(c1)OC[C@]1(O)c3cc4c(cc3O[C@H]21)OCO4 , thanks. inactive

* * *

- System: Zika virus NS2B-NS3 protease (unlinked complex)
- Experimental protocol: Primary screen GU Rhodamine qHTS for Zika virus inhibitors: Unlinked NS2B-NS3 protease assay (AID 1347159); also: nearly all actives have a fitted effect of over 60% in size
- Details: Recombinant ZIKV NS2B-NS3 protease, Rhodamine110 substrate fluorescence; series mostly up to 107 µM
Inconclusive results are not listed. Active and inactive are the calls of the source. The call rests on the fitted dose curve; in most records, active means well fitted inhibition curve with a large enough effect; inconclusive means small, poorly fitted or top-dose-only effect; inactive means no such curve, though single readings can be large or run the other way.
Hello, when you answer, please use one of the following outcomes: active, inactive

Before answering, review these 5 worked examples.
molecule="C[C@@H]1CC[C@]2(C)C(C[C@@H](O)[C@H](O)[C@]23CO3)[C@@]1(C)CCc1ccoc1 (some centres undefined)" study_system="Zika virus NS2B-NS3 protease (unlinked complex)" class=inactive
molecule="CC1(CO)CC[C@]2(C(=O)O[C@@H]3O[C@H](CO)[C@@H](O)[C@H](O)[C@H]3O)CC[C@]3(C)C(=CCC4[C@@]5(C)C[C@H](O)[C@H](O[C@@H]6OC[C@@H](O)[C@H](O)[C@H]6O)[C@@](C)(CO)C5CC[C@]43C)C2C1 (some centres undefined)" study_system="Zika virus NS2B-NS3 protease (unlinked complex)" class=inactive
molecule="CC(C)=CC/C=C(/C)[C@H]1CC[C@]2(C)[C@@H]1[C@H](O)CC1[C@@]3(C)CC[C@H](O)C(C)(C)[C@@H]3[C@@H](O[C@@H]3O[C@H](CO)[C@@H](O)[C@H](O)[C@H]3O[C@@H]3O[C@@H](C)[C@H](O)[C@@H](O)[C@H]3O)C[C@]12C (some centres undefined)" study_system="Zika virus NS2B-NS3 protease (unlinked complex)" class=inactive
molecule="CC(=O)N1c2ccccc2C2(O)CC3C(=O)NC(CC(C)C)C(=O)N3C12 (centres undefined)" study_system="Zika virus NS2B-NS3 protease (unlinked complex)" class=inactive
molecule=COC(=O)C1=CO[C@@H](O[C@@H]2O[C@H](CO)[C@@H](O)[C@H](O)[C@H]2O)[C@@H]2[C@@H](C)[C@@H](O)C[C@H]12 study_system="Zika virus NS2B-NS3 protease (unlinked complex)" class=inactive

Dear all, I need the recorded test outcome for O=c1ccn(C2OC(CO)C(O)C2O)c(=O)[nH]1 (centres undefined) , thank you. inactive

Also need CC(=O)OC[C@]12[C@H](OC(C)=O)C(=O)[C@@H]3[C@@H](OC(C)=O)[C@@]14O[C@@]3(C)COC(=O)c1cccnc1[C@@H](C)[C@H](C)C(=O)O[C@@H]([C@H](OC(C)=O)[C@@H]2OC(C)=O)[C@]4(C)O , thanks. inactive

Also need O=S(=O)(Nc1ccc(C(O)(C(F)(F)F)C(F)(F)F)cc1)c1cccs1 , thanks. inactive

Also need C[C@]1(OC(=O)/C=C/c2ccccc2)C[C@H](O)[C@]2(O)C=CO[C@@H](O[C@@H]3O[C@H](CO)[C@@H](O)[C@H](O)[C@H]3O)C12 (some centres undefined) , thanks. inactive

Also need CCOC(=O)Nc1nc2ccccc2[nH]1 , thanks. inactive

Also need CC(=O)c1c(C)cc(O)cc1O[C@@H]1O[C@H](CO)[C@@H](O)[C@H](O)[C@H]1O , thanks. inactive

Also need CC/C=C\C[C@H]1C(=O)C=C[C@@H]1CCCCCCCC(=O)O , thanks. active

Also need C[C@@]12C[C@]3(O)O[C@H](O1)[C@]1(COC(=O)c4ccccc4)[C@H]3C[C@@]12O[C@@H]1O[C@H](COC(=O)c2ccccc2)[C@@H](O)[C@H](O)[C@H]1O , thanks. inactive

Also need O=C(c1ccc(F)cc1)C1CCN(CCn2c(=O)nc3n(c2=O)CCCC3)CC1 , thanks. inactive
